Source: patent US9073821B2

# System: Klebsiella pneumoniae strain ATCC13883
# ASSAY_COMMENT: Antimicrobial activity, MIC by broth microdilution
# Type: cell-based
# TEST_PARAMETERS: Table 4, 35° C., 18 hours, read-out: Klebsiella pneumoniae ATCC 13883 strain MIC
MIC values, listed per item
Entry rule: numbers only, all in µg/mL.

Consider the following illustrative entries.
COMPOUND	TGT	MIC [µg/mL]
CNC(=O)C(C(=O)NO)N(C)C(=O)c1ccc(C#C/C=C/c2ccc(CNC3CC3)cc2)cc1 (centres unmarked)	Klebsiella pneumoniae strain ATCC13883	2
CNC(=O)[C@@](C)(C(=O)NO)N(C)C(=O)c1ccc(-c2ccc3c(ccn3C)c2)cc1	Klebsiella pneumoniae strain ATCC13883	1
CNC(=O)[C@@](C)(C(=O)NO)N(C)C(=O)c1ccc(CCc2ccc(CN3CCOCC3)cc2)cc1	Klebsiella pneumoniae strain ATCC13883	8
CNC(=O)[C@@](C)(C(=O)NO)N(C)C(=O)c1ccc(/C=C/c2ccc(CN3CCOCC3)cc2)cc1	Klebsiella pneumoniae strain ATCC13883	1
CCOC1CN(Cc2ccc(C#Cc3ccc(C(=O)N(C)[C@@](C)(C(=O)NC)C(=O)NO)cc3)cc2)C1	Klebsiella pneumoniae strain ATCC13883	1
CNC(=O)C(C)(C(=O)NO)N(C)C(=O)c1ccc(C#Cc2coc(COC)c2)cc1 (centres unmarked)	Klebsiella pneumoniae strain ATCC13883	2
CNC(=O)C(C(=O)NO)N(C)C(=O)c1ccc(C#Cc2ccc(CN3CCCOCC3)cc2)cc1 (centres unmarked)	Klebsiella pneumoniae strain ATCC13883	2
CNC(=O)[C@@](C)(C(=O)NO)N(C)C(=O)c1ccc(C#Cc2ccc(CN3CC4(COC4)C3)cc2)cc1	Klebsiella pneumoniae strain ATCC13883	2
CNC(=O)[C@@](C)(C(=O)NO)N(C)C(=O)c1ccc(-c2ccc(SC)cc2)cc1	Klebsiella pneumoniae strain ATCC13883	0.5
CNC(=O)[C@@](C)(C(=O)NO)N(C)C(=O)c1ccc(C#Cc2ccc(C3(NC)CC3)cc2)cc1	Klebsiella pneumoniae strain ATCC13883	2

Now consider a different compound.
Query block: # input compound: "CNC(=O)[C@@](C)(C(=O)NO)N(C)C(=O)c1ccc(C#Cc2ccc(CNC3COC3)cc2)cc1" ; wanted: its MIC
Result block: 2

----------
IC50 values, listed per item
# TGT: Pseudomonas aeruginosa LpxC enzyme (Pseudomonas aeruginosa (strain ATCC 15692 / DSM 22644 / CIP 104116 / JCM 14847 / LMG 12228 / 1C / PRS 101 / PAO1))
# ASSAY_COMMENT: biochemical
# Assay type: biochemical
# TEST_PARAMETERS: inhibitory activity on Pseudomonas aeruginosa LpxC enzyme, class symbols A/B/C; read-out: Enzyme inhibitory activity

Consider the following illustrative entries.
COMPOUND	RESULT
CNC(=O)C(C(=O)NO)N(C)C(=O)c1ccc(-c2ccc(F)cn2)cc1 (centres unmarked)	> 100 nM
CNC(=O)C(C(=O)NO)N(C)C(=O)c1ccc(-c2ccc(OCCCN(C)Cc3c(F)cccc3F)cc2)cc1 (centres unmarked)	< 10 nM

Query block: # input compound: CNC(=O)C(C(=O)NO)N(C)C(=O)c1ccc(CCc2ccc(CCN3CCCOCC3)cc2)cc1 (centres unmarked) ; wanted: its IC50
Result block: 10 to 100 nM

Query block: Please answer likewise for CNC(=O)C(C(=O)NO)N(C)C(=O)c1ccc(C#CC#Cc2ccc(CNCC(C)(C)C)cc2)cc1 (centres unmarked)
Result block: < 10 nM

Query block: Please answer likewise for CNC(=O)C(C)(C(=O)NO)N(C)C(=O)c1ccc(C#Cc2ccc(CN3CCCOCC3)cc2)cc1 (centres unmarked)
Result block: < 10 nM
